Molecular target: human alpha 1a adrenergic receptor (Homo sapiens, UniProt P35348)
Sequence (P35348 1-466): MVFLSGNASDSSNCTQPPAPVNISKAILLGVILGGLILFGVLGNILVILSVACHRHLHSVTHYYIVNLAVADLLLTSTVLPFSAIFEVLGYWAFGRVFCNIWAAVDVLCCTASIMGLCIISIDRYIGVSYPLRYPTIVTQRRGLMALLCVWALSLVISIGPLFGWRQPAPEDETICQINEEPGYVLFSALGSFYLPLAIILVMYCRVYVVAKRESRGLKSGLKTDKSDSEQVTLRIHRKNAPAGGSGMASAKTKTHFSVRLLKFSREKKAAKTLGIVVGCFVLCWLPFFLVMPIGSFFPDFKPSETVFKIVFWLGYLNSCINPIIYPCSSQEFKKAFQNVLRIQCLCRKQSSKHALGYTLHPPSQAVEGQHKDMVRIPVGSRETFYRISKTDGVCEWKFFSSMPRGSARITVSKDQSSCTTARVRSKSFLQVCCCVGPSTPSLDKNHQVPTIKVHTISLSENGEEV
Assay: Alpha 1a Adrenergic Receptor Binding (competition binding, [125I]-HEAT)
Settings: alpha 1a Ki, human alpha 1a membranes, [125I]-HEAT competition, room temperature, one hour
pKi: −log10 of the molar value. Where a name gives a salt, the structure may show the parent alone.
endpoint.name: pKi

[[record]]
compound = "Cc1ccc2c(c1)CCC21NC(=O)N(CCCN2CCC3(CCc4ccccc43)CC2)C1=O (single isomer, unassigned; (+)) [Compound 35]"
reported_measurement = "> 8.00"

[[record]]
compound = "O=C1NC2(CCc3cc(F)ccc32)C(=O)N1CCCN1CCC2(CCc3ccccc32)CC1 (racemic) [Compound 12, hydrochloride]"
reported_measurement = "> 8.00"

[[record]]
compound = "N#CC1(c2ccccc2)CCN(CCCN2C(=O)NC3(CCc4cc(F)ccc43)C2=O)CC1 (centres unmarked) [Compound 10]"
reported_measurement = "> 8.00"

[[record]]
compound = "Cl.O=C1Nc2ccc(Cl)cc2C2(CCN(CCCN3C(=O)NC4(CCc5cc(F)ccc54)C3=O)CC2)O1 (racemic) [Compound 15, hydrochloride]"
reported_measurement = "> 7.00"


I'm hoping you can list pKi for every compound here, please.
1. O=C1NC2(CCc3cc(Cl)ccc32)C(=O)N1CCCN1CCC2(CCc3ccccc32)CC1 (centres unmarked) [Compound 28]
2. O=C1NC2(CCc3cc(F)ccc32)C(=O)N1CCCN1CCC2(CCc3ccccc32)CC1 (centres unmarked) [Compound 14]
3. O=C1Nc2ccc(Cl)cc2C2(CCN(CCCN3C(=O)NC4(CCc5cc(Cl)ccc54)C3=O)CC2)O1 (racemic) [Compound 29, hydrochloride]
4. Cc1ccc2c(c1)CCC21NC(=O)N(CCCN2CCC3(CCc4ccccc43)CC2)C1=O (racemic) [Compound 33, hydrochloride]

["> 8.00", "> 7.00", "> 8.00", "> 8.00"]
